STUDY TARGET: Recombinant human IL-1β (BioLegend 579404) (human, UniProt P01584 117-269)
MEASUREMENT PROTOCOL: cell-based or functional assay
Starred links: 1 amine or outer side, 2 acyl side, 3 side chain; linkers in the order of their positions; H or OH if unused. Non-standard residues stand in square brackets, D forms with d. Phe4PyrimOMe = (S)-2-amino-3-(4-(2-methoxypyrimidin-5-yl)phenyl)propanoic acid, COc1ncc(-c2ccc(C[C@H](N[*:1])C(=O)[*:2])cc2)cn1; AEFPiv = (S)-2-amino-3-(4-(2-pivalamidoethoxy)phenyl)propanoic acid, CC(C)(C)C(=O)NCCOc1ccc(C[C@H](N[*:1])C(=O)[*:2])cc1; TyrEtNAc = (2S)-3-[4-(2-acetamidoethoxy)phenyl]-2-amino-propanoic acid, CC(=O)NCCOc1ccc(C[C@H](N[*:1])C(=O)[*:2])cc1; dProc3CH24Pal = (2R,3S)-3-(4-pyridylmethyl)pyrrolidine-2-carboxylic acid, O=C([C@H]1[C@@H](Cc2ccncc2)CCN1[*:1])[*:2]; AlaPyrim4CONH2 = (2S)-2-amino-3-(2-carbamoylpyrimidin-5-yl)propanoic acid, NC(=O)c1ncc(C[C@H](N[*:1])C(=O)[*:2])cn1; 4PyrimAla = (2S)-2-amino-3-pyrimidin-4-yl-propanoic acid, O=C([C@H](Cc1ccncn1)N[*:1])[*:2]; Phe4pcCCA = (1R,4s)-4-(4-((S)-2-amino-2-carboxyethyl)phenyl)cyclohexane-1-carboxylic acid; daMeSMe = (2R)-2-amino-3-methoxy-2-methyl-propanoic acid, COC[C@@](C)(N[*:1])C(=O)[*:2]; dPro(4R-(4-pyridylmethyl)) = O=C(O)[C@H]1C[C@@H](Cc2ccncc2)CN1; Trp(βS-Me,4-F) = C[C@@H](c1c[nH]c2cccc(F)c12)[C@H](N)C(=O)O; Bip(4'-CONH2) = NC(=O)c1ccc(-c2ccc(C[C@H](N)C(=O)O)cc2)cc1; Bip(4'-COOH) = N[C@@H](Cc1ccc(-c2ccc(C(=O)O)cc2)cc1)C(=O)O; Ala(1-bicyclo(1.1.1)pentyl) = N[C@@H](CC12CC(C1)C2)C(=O)O; dPro(4R-Bzl(4-F)) = O=C(O)[C@H]1C[C@@H](Cc2ccc(F)cc2)CN1; dPro(3S-(4-F-Bn)) = O=C(O)[C@@H]1NCC[C@@H]1Cc1ccc(F)cc1; Ala(pyrimidin-5-yl) = N[C@@H](Cc1cncnc1)C(=O)O; Phe(4-COOH) = N[C@@H](Cc1ccc(C(=O)O)cc1)C(=O)O; Ala(2-pyrazinyl) = N[C@@H](Cc1cnccn1)C(=O)O; Bip = N[C@@H](Cc1ccc(-c2ccccc2)cc1)C(=O)O; Phe(3-Cl) = N[C@@H](Cc1cccc(Cl)c1)C(=O)O; Pro(cis-4-F) = O=C(O)[C@@H]1C[C@H](F)CN1; Dap(CONH2) = NC(=O)NC[C@H](N)C(=O)O; d(αMeD) = C[C@@](N)(CC(=O)O)C(=O)O; 4Pal = N[C@@H](Cc1ccncc1)C(=O)O; aThr = C[C@H](O)[C@H](N)C(=O)O; d(αMeS) = C[C@@](N)(CO)C(=O)O; Dab = NCC[C@H](N)C(=O)O; Aib = CC(C)(N)C(=O)O; Sar = CNCC(=O)O
READOUT TYPE: MRC5 IC50 (nM)
Give the quantity in nM, number only.

Past entries and their recorded results:
Query: Recall and state the measured MRC5 IC50 for cyclo([Phe4PyrimOMe][4Pal][Phe(4-COOH)]G[Pro(cis-4-F)][Trp(βS-Me,4-F)][Aib]SW[d(αMeD)][Ala(pyrimidin-5-yl)]Q[Dab]G[dPro(3S-(4-F-Bn))]) (ring closure inferred) [SEQ ID NO 281] .
Result: 0.012

Query: Recall and state the measured MRC5 IC50 for cyclo([Phe4pcCCA][Ala(1-bicyclo(1.1.1)pentyl)][Phe(4-COOH)]G[Pro(cis-4-F)][Trp(βS-Me,4-F)][Aib]SW[d(αMeD)][Ala(pyrimidin-5-yl)]Q[Dab]G[dPro(4R-(4-pyridylmethyl))]) (ring closure inferred) [SEQ ID NO 335] .
Result: 0.022

Query: Recall and state the measured MRC5 IC50 for cyclo([Bip][4Pal][Phe(4-COOH)]G[Pro(cis-4-F)][Trp(βS-Me,4-F)][Aib]SW[d(αMeD)][dE]Q[Dab]G[dPro(4R-(4-pyridylmethyl))]) (ring closure inferred) [SEQ ID NO 249] .
Result: 0.016

---
Query: Recall and state the measured MRC5 IC50 for cyclo([AEFPiv][4Pal][Phe(4-COOH)]G[Pro(cis-4-F)][Trp(βS-Me,4-F)][Aib]SW[Aib][Ala(pyrimidin-5-yl)]Q[Dab]G[dPro(4R-(4-pyridylmethyl))]) (ring closure inferred; not fully specified (N-terminus)) [SEQ ID NO 300] .
Result: 0.013

Query: Recall and state the measured MRC5 IC50 for cyclo([Bip(4'-COOH)][4Pal][Phe(4-COOH)]G[Pro(cis-4-F)][Trp(βS-Me,4-F)][Aib]SW[d(αMeD)][Ala(2-pyrazinyl)]Q[Dab]G[dPro(4R-Bzl(4-F))]) (ring closure inferred) [SEQ ID NO 321] .
Result: 0.015

Query: Recall and state the measured MRC5 IC50 for cyclo([Bip(4'-COOH)][4Pal][Phe(4-COOH)]G[Pro(cis-4-F)][Trp(βS-Me,4-F)][Aib]SW[daMeSMe][Ala(pyrimidin-5-yl)]Q[Dab]G[dPro(4R-(4-pyridylmethyl))]) (ring closure inferred) [SEQ ID NO 260] .
Result: 0.013

Query: Recall and state the measured MRC5 IC50 for cyclo([Bip][4Pal][Phe(4-COOH)]G[Pro(cis-4-F)][Trp(βS-Me,4-F)][Aib]SW[d(αMeD)][dK]Q[Dap(CONH2)]G[dPro(4R-(4-pyridylmethyl))]) (ring closure inferred) [SEQ ID NO 244] .
Result: 0.03

Query: Recall and state the measured MRC5 IC50 for cyclo([Bip(4'-COOH)][Ala(1-bicyclo(1.1.1)pentyl)][Phe(4-COOH)]G[Pro(cis-4-F)][Trp(βS-Me,4-F)][Aib]SW[d(αMeD)][4PyrimAla]Q[Dab]G[dProc3CH24Pal]) (ring closure inferred) [SEQ ID NO 284] .
Result: 0.015

Query: Recall and state the measured MRC5 IC50 for cyclo([TyrEtNAc][4Pal][Phe(4-COOH)]G[Pro(cis-4-F)][Trp(βS-Me,4-F)][Aib]EW[Aib][Phe(3-Cl)]Q[Dab]G[dPro(4R-(4-pyridylmethyl))]) (ring closure inferred; not fully specified (N-terminus)) [SEQ ID NO 309] .
Result: 0.018

Query: Recall and state the measured MRC5 IC50 for cyclo([Bip(4'-COOH)][4Pal][Phe(4-COOH)]G[Pro(cis-4-F)][Trp(βS-Me,4-F)][Aib]SW[d(αMeD)][Ala(pyrimidin-5-yl)]Q[Dab]G[dProc3CH24Pal]) (ring closure inferred) [SEQ ID NO 328] .
Result: 0.008

Query: Recall and state the measured MRC5 IC50 for cyclo([Bip(4'-COOH)][4Pal][Phe(4-COOH)]G[Pro(cis-4-F)][Trp(βS-Me,4-F)][Aib]SW[Aib][AlaPyrim4CONH2]Q[Dab]G[dPro(4R-(4-pyridylmethyl))]) (ring closure inferred) [SEQ ID NO 267] .
Result: 0.014

Query: Recall and state the measured MRC5 IC50 for cyclo([Bip(4'-COOH)][4Pal][Phe(4-COOH)]G[Pro(cis-4-F)][Trp(βS-Me,4-F)][Aib]SW[d(αMeD)][aThr]Q[Dab][Sar][dPro(4R-(4-pyridylmethyl))]) (ring closure inferred) [SEQ ID NO 337] .
Result: 0.022

Query: Recall and state the measured MRC5 IC50 for cyclo([Bip(4'-CONH2)][4Pal][Phe(4-COOH)]G[Pro(cis-4-F)][Trp(βS-Me,4-F)][Aib]SW[d(αMeS)][Ala(pyrimidin-5-yl)]Q[Dab]G[dPro(4R-(4-pyridylmethyl))]) (ring closure inferred) [SEQ ID NO 339] .
Result: 0.024
